Where do the numbers come from? From PubChem BioAssay (NCI).

- Test system: ACHN renal
- assay_remarks: NCI tumour cell line growth inhibition, 48 h
measure: TGI

Ask | For the compound C=CCN(c1cc(OCc2ccccc2)c2c(c(C)cn2S(=O)(=O)c2ccc([N+](=O)[O-])cc2)c1[N+](=O)[O-])S(C)(=O)=O , report TGI.
Reply | > 100 µM

Ask | Hello, please tell me recorded TGI for this one: C(=C\c1cc(CCc2nc3ccccc3[nH]2)[nH]n1)/c1ccccc1
Reply | > 100 µM

Ask | Give recorded TGI. CC(=O)NC(CCCN(Cc1ccccc1)C(=O)NCCCl)C(=O)NCc1ccccc1 (centres undefined)
Reply | > 100 µM

Ask | // Input: CC(C)NC(=O)OCc1c(COC(=O)NC(C)C)n(C)c2c1ccc1ccsc12 . Output its TGI only.
Reply | 14.2 µM

Ask | State, in one line, measured TGI of C[n+]1c2ccccc2c2/c(=C\C#N)c3ccccc3n21
Reply | 18.5 µM

Ask | Give reported TGI value for Cc1cc(Cl)ccc1Nc1nc(C(F)(F)F)ccc1C(=O)N/N=C/c1cccc(O)c1
Reply | > 31.8 µM

Ask | Note TGI for the compound shown: CC(=O)OCC1OC(n2c(C)c(C(C)=O)c(-c3ccc(Cl)cc3)c(C#N)c2=S)C(OC(C)=O)C(OC(C)=O)C1OC(C)=O (centres undefined)
Reply | > 100 µM

Ask | Please report TGI for the following compound: Cc1ccc(Cl)cc1Nc1nc(C(F)(F)F)ccc1C(N)=O
Reply | 15.3 µM

Ask | Given O=C(Cn1nnc(-c2ccccc2)n1)N/N=C/c1cn(Cc2ccc(Cl)cc2Cl)c2ccccc12 , respond with its TGI.
Reply | > 100 µM

Ask | Consider the compound Cc1cc(Cc2c(C)c(C)c(Cc3cc(C)cc(C(C)(C)C)c3O)c(C)c2C)c(O)c(C(C)(C)C)c1 and give its recorded TGI.
Reply | > 100 µM

Ask | Please report the measured TGI for COc1ccc2nc3n[nH]c(N)c3nc2c1
Reply | > 23.7 µM

Ask | Return TGI for the following compound: CC(=O)Oc1cn(-c2ccc(Cl)cc2)nc1C1=NN(C(C)=O)C(c2ccc(F)cc2F)O1 (centres undefined)
Reply | > 100 µM

Ask | Answer with the recorded TGI of Cc1[nH]n(-c2ncc(C#N)c(=O)[nH]2)c(=O)c1CCO only.
Reply | > 100 µM

Ask | Retrieve TGI measured for Cc1ccc2c(c1)C(=O)C(c1c(-c3[nH]c(=O)c4ccc(C)cc4c3O)c(O)c3ccccc3c1O)=NC2=O and print it.
Reply | 4.36 µM

Ask | Please indicate TGI recorded for OCCOCCO/N=C1\C(c2c(O)[nH]c3ccccc23)=Nc2ccccc21
Reply | 10.3 µM

Ask | Tell me TGI reported for CCOC(=O)C(C(C)=O)C1CC=CC1 (centres undefined)
Reply | > 100 µM

Ask | State its TGI: COc1cc(/C=C\c2cc(/C=C\c3ccc(O)c(OC)c3)n(C(=O)COc3ccc(Cl)cc3Cl)n2)ccc1O
Reply | 9.13 µM

Ask | // Input: C[C@]12OC(=O)[C@]3(O)CC[C@H]4[C@@H](C[C@@H](O)[C@@]5(Cl)CC=CC(=O)[C@]45C)[C@]45OCC6C(=O)O[C@@H]1C[C@@]6(C)[C@H](C4=O)[C@@]32O5 (some centres undefined) . Output its TGI only.
Reply | 5.9 µM

Ask | Read the entry COc1ccccc1C=NC12CC3CC(CC(C3)C1)C2 and write its reported TGI.
Reply | > 100 µM
